The reader will find reported pIC50 values listed item by item below.
Biological target: Cytochrome P450 2A6 (Homo sapiens)
Sequence (P11509 whole entry): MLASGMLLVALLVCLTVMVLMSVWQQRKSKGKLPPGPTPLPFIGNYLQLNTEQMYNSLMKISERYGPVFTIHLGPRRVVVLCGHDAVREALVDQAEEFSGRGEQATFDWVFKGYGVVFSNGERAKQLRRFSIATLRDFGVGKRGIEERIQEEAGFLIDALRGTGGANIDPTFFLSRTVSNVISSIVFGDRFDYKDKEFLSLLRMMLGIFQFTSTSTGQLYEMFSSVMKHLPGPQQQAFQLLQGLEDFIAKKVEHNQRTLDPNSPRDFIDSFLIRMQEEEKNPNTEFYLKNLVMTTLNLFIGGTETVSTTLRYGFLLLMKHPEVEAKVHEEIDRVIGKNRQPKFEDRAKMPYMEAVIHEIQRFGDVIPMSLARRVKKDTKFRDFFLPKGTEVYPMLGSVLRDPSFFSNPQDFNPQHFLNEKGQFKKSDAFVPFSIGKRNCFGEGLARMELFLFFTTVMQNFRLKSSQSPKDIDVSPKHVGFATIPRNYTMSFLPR
pIC50: −log10 of the molar value.
recorded-endpoint: pIC50

structure-as-smiles | observed-measurement
O=c1cc(-c2ccccc2)oc2c1ccc1occc12 | < 4.70
COc1c(-c2ccc3c(c2)OCO3)oc2c(ccc3occc32)c1=O | < 4.70

----------
Molecular target: Cytochrome P450 1A1 (Homo sapiens)
Sequence (P04798 whole entry): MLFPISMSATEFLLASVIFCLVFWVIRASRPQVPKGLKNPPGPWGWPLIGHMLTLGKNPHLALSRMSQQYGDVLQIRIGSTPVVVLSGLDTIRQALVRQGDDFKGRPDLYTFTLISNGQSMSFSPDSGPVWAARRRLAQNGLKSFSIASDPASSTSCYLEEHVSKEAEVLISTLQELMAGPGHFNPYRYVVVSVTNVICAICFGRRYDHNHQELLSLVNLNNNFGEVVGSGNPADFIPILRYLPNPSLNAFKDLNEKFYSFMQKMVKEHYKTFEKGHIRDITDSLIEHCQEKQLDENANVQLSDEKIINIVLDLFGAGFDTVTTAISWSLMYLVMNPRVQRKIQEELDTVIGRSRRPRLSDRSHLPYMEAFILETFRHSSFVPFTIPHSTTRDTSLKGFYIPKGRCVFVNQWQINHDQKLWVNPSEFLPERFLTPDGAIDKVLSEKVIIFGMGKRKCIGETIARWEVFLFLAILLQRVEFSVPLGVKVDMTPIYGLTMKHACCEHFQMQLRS
Assay: Inhibition of human CYP1A1 expressed in sacchrosomes using 7-ethoxyresorufin as substrate by fluorescence based assay
recorded-endpoint: IC50 (nM)

structure-as-smiles | study-target | recorded-endpoint | observed-measurement
COc1c(-c2cc(-c3ccccc3)n(-c3ccc(C#N)cc3)n2)ccc2occc12 | Cytochrome P450 1A1 (Homo sapiens) | IC50 | 280
O=c1cc(-c2ccccc2)oc2c1ccc1occc12 | Cytochrome P450 1A1 (Homo sapiens) | IC50 | 76
COc1c(-c2ccc3c(c2)OCO3)oc2c(ccc3occc32)c1=O | Cytochrome P450 1A1 (Homo sapiens) | IC50 | 71
COc1c(-c2cc(-c3ccccc3)nn2-c2ccc(C#N)cc2)ccc2occc12 | Cytochrome P450 1A1 (Homo sapiens) | IC50 | 6800
COc1c(C(=O)/C=C(\O)c2ccc3c(c2)OCO3)ccc2occc12 | Cytochrome P450 1A1 (Homo sapiens) | IC50 | 280

----------
Biological target: Cytochrome P450 2B6 (Homo sapiens)
Sequence (P20813 whole entry): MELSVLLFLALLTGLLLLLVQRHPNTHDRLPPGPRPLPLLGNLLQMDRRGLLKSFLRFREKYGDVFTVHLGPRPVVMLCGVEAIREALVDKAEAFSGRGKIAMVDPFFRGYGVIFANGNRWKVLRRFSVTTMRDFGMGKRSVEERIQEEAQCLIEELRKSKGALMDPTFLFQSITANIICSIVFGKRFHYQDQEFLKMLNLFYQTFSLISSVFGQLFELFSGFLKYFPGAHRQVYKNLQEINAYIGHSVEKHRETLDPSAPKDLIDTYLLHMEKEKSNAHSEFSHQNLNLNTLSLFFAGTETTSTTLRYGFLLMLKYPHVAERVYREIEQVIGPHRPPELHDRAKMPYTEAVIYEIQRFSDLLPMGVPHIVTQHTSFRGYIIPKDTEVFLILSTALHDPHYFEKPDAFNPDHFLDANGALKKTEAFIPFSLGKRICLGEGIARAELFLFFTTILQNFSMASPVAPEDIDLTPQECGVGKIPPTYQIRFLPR
pIC50: −log10 of the molar value.

compound | study-target | pIC50
O=c1cc(-c2ccccc2)oc2c1ccc1occc12 [LANCEOLATIN B] | Cytochrome P450 2B6 (Homo sapiens) | < 4.70
COc1c(-c2ccc3c(c2)OCO3)oc2c(ccc3occc32)c1=O [PONGAPIN] | Cytochrome P450 2B6 (Homo sapiens) | < 4.70
